Origin of measurements: patent US20220411471A1

// reported IC50 per item
Molecular target: Human MDM2 (HDM2) 1-116 (Homo sapiens, UniProt Q00987)
Construct: Human MDM2 (HDM2) 1-116
Sequence (Q00987 1-116): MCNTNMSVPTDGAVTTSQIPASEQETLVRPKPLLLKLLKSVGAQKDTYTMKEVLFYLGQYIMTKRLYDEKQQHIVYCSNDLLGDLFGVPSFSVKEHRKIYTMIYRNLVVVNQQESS
Test: Fluorescence polarization assay 2, MDM2 (Table 4)
Type: binding
Settings: Table 4; fluorescence polarization; read-out: MDM2 IC50
Non-standard residues stand in square brackets, D forms with d. Residues, ends and D or L forms follow the SMILES beside them. Ala(4-thiazolyl) = N[C@@H](Cc1cscn1)C(=O)O; Phe(4-Cl) = N[C@@H](Cc1ccc(Cl)cc1)C(=O)O; Phe(4-F) = N[C@@H](Cc1ccc(F)cc1)C(=O)O; NMeF = CN[C@@H](Cc1ccccc1)C(=O)O; Tle = CC(C)(C)[C@H](N)C(=O)O; hSer = N[C@@H](CCO)C(=O)O; NMeA = CN[C@@H](C)C(=O)O; dNMeA = CN[C@H](C)C(=O)O; Nme = COCCNCC(=O)O

Problem: Looking for the measured IC50 of COCC[C@@H]1NC(=O)[C@H]2CCCN2C(=O)[C@H](Cc2ccccc2)N(C)C(=O)[C@H](Cc2ccc(Cl)cc2)NC(=O)[C@H](C(C)C)NC(=O)[C@H](Cc2ccc(F)cc2)NC(=O)CN(CCOC)C(=O)[C@@H](C)N(C)C(=O)[C@H](Cc2cscn2)NC(=O)[C@H](C)N(C)C1=O [Compound 41] (cyclo([Ala(4-thiazolyl)][dNMeA][Nme][Phe(4-F)]V[Phe(4-Cl)][NMeF][dP][hSer](Me)[NMeA])) , can you help?
Result: < 0.025 µM

Problem: Looking for the measured IC50 of COCC[C@@H]1NC(=O)[C@H]2CCCN2C(=O)[C@H](Cc2ccccc2)N(C)C(=O)[C@H](Cc2ccc(Cl)cc2)NC(=O)[C@H](C(C)(C)C)NC(=O)[C@H](Cc2ccc(F)cc2)NC(=O)CN(CCOC)C(=O)[C@@H](C)N(C)C(=O)[C@H](Cc2ccc(O)cc2)NC(=O)[C@H](C)N(C)C1=O [Compound 32] (cyclo([NMeA]Y[dNMeA][Nme][Phe(4-F)][Tle][Phe(4-Cl)][NMeF][dP][hSer](Me))) , can you help?
Result: < 0.025 µM

* * *

// reported pIC50 per item
Target: Human MDM2 (HDM2) 1-116 (Homo sapiens, UniProt Q00987)
Construct: Human MDM2 (HDM2) 1-116
Assay: Fluorescence polarization assay, MDM2/p53 (Table 3)
Assay type: binding
pIC50: −log10 of the molar value. Starred links: 1 amine or outer side, 2 acyl side, 3 side chain; linkers in the order of their positions; H or OH if unused. Non-standard residues stand in square brackets, D forms with d. Residues, ends and D or L forms follow the SMILES beside them. Azetidine3carboxylic = O=C(C1CN([*:1])C1)[*:2]; Phe(4-Cl) = N[C@@H](Cc1ccc(Cl)cc1)C(=O)O; Phe(4-F) = N[C@@H](Cc1ccc(F)cc1)C(=O)O; 3Pal = N[C@@H](Cc1cccnc1)C(=O)O; NMeL = CN[C@@H](CC(C)C)C(=O)O; Tle = CC(C)(C)[C@H](N)C(=O)O; dPip = O=C(O)[C@H]1CCCCN1; NMeA = CN[C@@H](C)C(=O)O

C[C@H]1C(=O)N[C@@H](Cc2ccc(F)cc2)C(=O)N[C@@H](C(C)(C)C)C(=O)N[C@@H](Cc2ccc(Cl)cc2)C(=O)N2CCCC[C@@H]2C(=O)N2CCC[C@H]2C(=O)N[C@@H](Cc2ccccc2)C(=O)N2CC(C2)C(=O)N[C@@H](Cc2cccnc2)C(=O)N2CCC[C@@H]2C(=O)N1C [Compound 19] (cyclo([3Pal][dP][NMeA][Phe(4-F)][Tle][Phe(4-Cl)][dPip]PF[Azetidine3carboxylic])) = > 6.00
CC(C)C[C@H]1C(=O)N[C@@H](CC(=O)O)C(=O)N[C@@H](Cc2c[nH]c3ccccc23)C(=O)N[C@@H](CCC(=O)O)C(=O)N[C@@H](Cc2ccccc2)C(=O)N2CCC[C@@H]2C(=O)N2CCC[C@H]2C(=O)N[C@@H](Cc2ccccc2)C(=O)N[C@@H](CCC(=O)O)C(=O)N[C@@H](Cc2c[nH]c3ccccc23)C(=O)N1C [Compound 3] (cyclo(FEW[NMeL]DWEF[dP]P)) = > 6.00

# evaluate next
Problem: Enter reported pIC50 observed with Human MDM2 (HDM2) 1-116 (Homo sapiens, UniProt Q00987) for C[C@H]1C(=O)N[C@@H](Cc2ccc(Cl)cc2)C(=O)N2CCCC[C@@H]2C(=O)N2CCC[C@H]2C(=O)N[C@@H](Cc2cccnc2)C(=O)N[C@@H](CCC(=O)O)C(=O)N[C@@H](Cc2ccc(O)cc2)C(=O)N2CCC[C@@H]2C(=O)N(C)[C@@H](C)C(=O)N[C@@H](Cc2ccc(F)cc2)C(=O)N1C [Compound 16] (cyclo([3Pal]EY[dP][NMeA][Phe(4-F)][NMeA][Phe(4-Cl)][dPip]P))
Result: > 6.00

* * *

Biological target: Human MDM4 (HDM4) 1-114 (Homo sapiens)
Construct: Human MDM4 (HDM4) 1-114
Sequence (O15151 1-114): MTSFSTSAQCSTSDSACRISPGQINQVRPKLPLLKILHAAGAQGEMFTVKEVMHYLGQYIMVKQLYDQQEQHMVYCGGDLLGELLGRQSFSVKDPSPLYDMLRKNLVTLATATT
Test: Fluorescence polarization assay 2, MDM4 (Table 4)
Type: binding
Conditions: Table 4; fluorescence polarization; read-out: MDM4 IC50
pIC50: −log10 of the molar value. Non-standard residues stand in square brackets, D forms with d. Residues, ends and D or L forms follow the SMILES beside them. NEtPhe(4-F) = CCN[C@@H](Cc1ccc(F)cc1)C(=O)O; Ala(4-thiazolyl) = N[C@@H](Cc1cscn1)C(=O)O; NMePhe(4-F) = CN[C@@H](Cc1ccc(F)cc1)C(=O)O; Phe(4-Cl) = N[C@@H](Cc1ccc(Cl)cc1)C(=O)O; Phe(4-F) = N[C@@H](Cc1ccc(F)cc1)C(=O)O; NMeF = CN[C@@H](Cc1ccccc1)C(=O)O; Tle = CC(C)(C)[C@H](N)C(=O)O; Pip = O=C(O)[C@@H]1CCCCN1; hSer = N[C@@H](CCO)C(=O)O; NMeA = CN[C@@H](C)C(=O)O; dNMeA = CN[C@H](C)C(=O)O; Abu = CC[C@H](N)C(=O)O; Nme = COCCNCC(=O)O
// reported pIC50 per item

CC[C@@H]1NC(=O)[C@H](Cc2ccc(F)cc2)NC(=O)CN(CCOC)C(=O)[C@@H](C)N(C)C(=O)[C@H](Cc2cscn2)NC(=O)[C@H](C)N(C)C(=O)[C@H](CCOC)NC(=O)[C@H]2CCCN2C(=O)[C@H](Cc2ccccc2)N(C)C(=O)[C@H](Cc2ccc(Cl)cc2)NC1=O [Compound 42] (cyclo([Abu][Phe(4-Cl)][NMeF][dP][hSer](Me)[NMeA][Ala(4-thiazolyl)][dNMeA][Nme][Phe(4-F)])) = 6.82 to 7.00
COCC[C@@H]1NC(=O)[C@H]2CCCN2C(=O)[C@H](Cc2ccccc2)N(C)C(=O)[C@H](Cc2ccc(Cl)cc2)NC(=O)[C@H](C(C)(C)C)NC(=O)[C@H](Cc2ccc(F)cc2)NC(=O)CN(CCOC)C(=O)[C@@H](C)N(C)C(=O)[C@H](Cc2ccc(O)cc2)NC(=O)[C@H](C)N(C)C1=O [Compound 32] (cyclo([NMeA]Y[dNMeA][Nme][Phe(4-F)][Tle][Phe(4-Cl)][NMeF][dP][hSer](Me))) = < 6.82
CCN1C(=O)[C@H](Cc2ccc(Cl)cc2)NC(=O)[C@H](C(C)(C)C)NC(=O)[C@H](Cc2ccc(F)cc2)NC(=O)CN(CCOC)C(=O)[C@@H](C)N(C)C(=O)[C@H](Cc2cscn2)NC(=O)[C@H](C)N(C)C(=O)[C@H](CCOC)NC(=O)[C@H]2CCCN2C(=O)[C@@H]1Cc1ccc(F)cc1 [Compound 44] (cyclo([Ala(4-thiazolyl)][dNMeA][Nme][Phe(4-F)][Tle][Phe(4-Cl)][NEtPhe(4-F)][dP][hSer](Me)[NMeA])) = < 6.82

Problem: Looking for the measured pIC50 of COCC[C@@H]1NC(=O)[C@H]2CCCN2C(=O)[C@H](Cc2ccc(F)cc2)N(C)C(=O)[C@H](Cc2ccc(Cl)cc2)NC(=O)[C@@H]2CCCCN2C(=O)[C@H](Cc2ccc(F)cc2)NC(=O)CN(CCOC)C(=O)[C@@H](C)N(C)C(=O)[C@H](Cc2cscn2)NC(=O)[C@H](C)N(C)C1=O [Compound 46] (cyclo([Ala(4-thiazolyl)][dNMeA][Nme][Phe(4-F)][Pip][Phe(4-Cl)][NMePhe(4-F)][dP][hSer](Me)[NMeA])) , can you help?
Result: 6.82 to 7.00

* * *

Assay: Pharmacokinetic parameters of Compound 35, intravenous, mice
Assay type: in vivo
Settings: mouse, 1 mg/kg, plasma, read-out: Vss
Non-standard residues stand in square brackets, D forms with d. Residues, ends and D or L forms follow the SMILES beside them. Ala(4-thiazolyl) = N[C@@H](Cc1cscn1)C(=O)O; Phe(4-Cl) = N[C@@H](Cc1ccc(Cl)cc1)C(=O)O; Phe(4-F) = N[C@@H](Cc1ccc(F)cc1)C(=O)O; NMeF = CN[C@@H](Cc1ccccc1)C(=O)O; Tle = CC(C)(C)[C@H](N)C(=O)O; hSer = N[C@@H](CCO)C(=O)O; NMeA = CN[C@@H](C)C(=O)O; dNMeA = CN[C@H](C)C(=O)O; Nme = COCCNCC(=O)O
measured quantity: Vd (L/kg)
Provide the reading as a plain figure in L/kg.

Problem: Looking for the measured Vd of COCC[C@@H]1NC(=O)[C@H]2CCCN2C(=O)[C@H](Cc2ccccc2)N(C)C(=O)[C@H](Cc2ccc(Cl)cc2)NC(=O)[C@H](C(C)(C)C)NC(=O)[C@H](Cc2ccc(F)cc2)NC(=O)CN(CCOC)C(=O)[C@@H](C)N(C)C(=O)[C@H](Cc2cscn2)NC(=O)[C@H](C)N(C)C1=O [Compound 35] (cyclo([Ala(4-thiazolyl)][dNMeA][Nme][Phe(4-F)][Tle][Phe(4-Cl)][NMeF][dP][hSer](Me)[NMeA])) , can you help?
Result: 0.14
